# assay-target: renin (Homo sapiens)
# Sequence (P00797 67-406): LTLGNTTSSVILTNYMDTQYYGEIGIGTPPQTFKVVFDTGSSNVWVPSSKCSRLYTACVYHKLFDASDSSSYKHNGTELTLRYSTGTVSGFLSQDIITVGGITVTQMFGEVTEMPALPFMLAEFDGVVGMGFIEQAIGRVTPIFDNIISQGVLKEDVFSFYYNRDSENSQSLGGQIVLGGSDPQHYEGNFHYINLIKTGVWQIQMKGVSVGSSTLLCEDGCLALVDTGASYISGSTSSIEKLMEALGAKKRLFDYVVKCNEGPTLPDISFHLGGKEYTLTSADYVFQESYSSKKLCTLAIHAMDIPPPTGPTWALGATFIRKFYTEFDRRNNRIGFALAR
# assay-explanation: in vitro renin inhibition, radioimmunoassay for angiotensin I
# condition-context: incubated for two hours at 37° in the presence of angiotensinogen, read-out: IC50 (molar concentration of test compound causing a 50% inhibition of the renin activity)
Here, each record is paired with measured pIC50 data.
When answering, recall that pIC50 equals minus log10 of the concentration in mol/L, and write that number alone.

compound | pIC50
CC(C)C[C@H](NC(=O)[C@H](Cc1c[nH]cn1)NC(=O)[C@H](Cc1ccccc1)NC(=O)OC(C)(C)C)C(O)C(=O)OC(C)C (some centres unmarked) | 6.00

Field request: pIC50 | item: CC(C)C[C@H](NC(=O)[C@H](Cc1c[nH]cn1)NC(=O)C(Cc1cccc2ccccc12)Cc1cccc2ccccc12)[C@@H](O)C(=O)OC(C)C
6.85
